All figures here come from ChEMBL document CHEMBL1129598.

Experiment: lipophilicity of the compound.
Assay type: physicochemical
Settings: reversed-phase HPLC
MEASURE: Log K'W
Output: the number by itself.

Reference set, count: 2
{"STRUCTURE_SMILES_STRING": "CC1(C)Cc2ccccc2C=[N+]1[O-]", "Log K'W": 1.9}
{"STRUCTURE_SMILES_STRING": "[O-][N+]1=Cc2ccccc2CC12CCOCC2", "Log K'W": 1.65}

Param item = [O-][N+]1=Cc2ccccc2CCC12CCCCC2 ; retrieve measured Log K'W. 2.99

Return reported Log K'W; argument: CC1(C)Cc2ccsc2C=[N+]1[O-] 1.47

Find the recorded Log K'W belonging to COc1ccc2c(c1)C(C)(C)[N+]([O-])=C2 and report it. 1.75

Param item = [O-][N+]1=Cc2ccccc2CCC12CCOCC2 ; retrieve measured Log K'W. 1.98

Quick one: Log K'W of CC1(C)Cc2sccc2C=[N+]1[O-] ? 1.57

###

Experiment: lipophilicity of the compound.
Assay type: physicochemical
Details: reversed-phase HPLC
Everything with Log K'W lower than 2 is NOT MET; everything else, including exactly 2, is MET.

Some solved cases for reference:
{"STRUCTURE_SMILES_STRING": "Cc1cc2c(c(C)c1O)CCC(C)(C)[N+]([O-])=C2", "CAT": "MET"}
{"STRUCTURE_SMILES_STRING": "CC1(C)Cc2ccoc2C=[N+]1[O-]", "CAT": "NOT MET"}
{"STRUCTURE_SMILES_STRING": "CC1(C)c2cc(O)ccc2C=[N+]1[O-]", "CAT": "NOT MET"}
{"STRUCTURE_SMILES_STRING": "CC1(C)Cc2ccc3ccccc3c2C=[N+]1[O-]", "CAT": "MET"}

Quick check, Log K'W >= 2? Cc1cc2c(c(C)c1O)CC(C)(C)[N+]([O-])=C2 NOT MET

Does the reported Log K'W for CC1(C)Cc2c(ccc3ccccc23)C=[N+]1[O-] fall at or above the 2 mark? MET

Can CC1(C)c2ccccc2C=[N+]1[O-] be said to have Log K'W at or above 2? NOT MET
